System: MS2 coat protein
procedureText: apparent KD of MS2 coat protein; higher = weaker reporter binding
conditionsUsed: Eterna round: R107; input ligand: arginine 13.2 mM
resultType: apparent KD of MS2 coat protein (nM)
Field format: number, assumed nM, no unit text.

Take a look at these entries with their results.
sequenceData	targetOrSystem	assayResult
UCACAUGAGGAUCACCCAUGUAUAGUUGAAGGAGCGAUCAGGAGGUCAGGUAGGUCGCAGCACAUGAGGAUCACCCAUGUAUCGA [DOUBLE!!! :-D #4]	MS2 coat protein	34
ACAUGAGGAUCACCCAUGUAAGAUUCAGAAGGAGCGGGAAAUAACCCAGGUAGGUCGCUGAAGUUUGGUUUAUUGUGUUCGUGAA [#07 Exclusion - Arginine A]	MS2 coat protein	10.2

Next sequence, please.
Per the reported MS2 coat protein data, ACACGAGGAUCACCCGUGUCAUGUGGUGAUACCAGUUUACAUGAGAACCCUUGGCAGCAUAACAACAUGAGGAUCACCCAUGUCA [Same State - Theophylline A #1] has apparent KD of MS2 coat protein of 24.4

====

Test system: K4 kissing-loop RNA reporter;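 further: bound reporter read as fluorescence of individual clusters on recovered sequencing chips by microscopy, with normalized cluster intensities fitted with a binding model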
procedureText: apparent KD of K4 kissing-loop reporter; higher = weaker reporter binding
conditionsUsed: Eterna round: R107; input ligand: FMN 200 uM
resultType: apparent KD of K4 kissing-loop reporter

Examples from the recorded data:
sequenceData	targetOrSystem	apparent KD of K4 kissing-loop reporter
GGGCGCGGCGCGGCCGCCACUGGGCCUGGGCGCGCGCCGAGUGAUGUUCGCCUGCGGCUGGGUCGUAGGACCGGGUGCCGGCUGG [BDazzled 1]	K4 kissing-loop RNA reporter	422 nM
UAGCGAUGAAGUGAUACCAGAGAGUGAUGUUCUUUUUUUAUUCAGAAUACUGUCGCCUUGCUCCCUUGGCAGCACGCAGGCGCAG [theeternabot_exclusion_KL_Theo_B_18]	K4 kissing-loop RNA reporter	206 nM
UGUACCGAGUCAGGAUAUCAACGACUGACAAAAGUCGGUCGAAUAUCCAGUGAUGUUGGAAAUAAAUGAGAAGGGACUUGGUACU [FmnBS 14 #SwitchBubble #StaticStem]	K4 kissing-loop RNA reporter	125 nM

Result for GUUACGCAUGGAAGGAGCGCACUCCGAUUGAUCGACACAGUGAUGUUGUGGUUCGUUCGAAUGCAGGUAGGUCGCCAUGUGUAAC [Ex Arginine B K4 17] , tested on K4 kissing-loop RNA reporter, apparent KD of K4 kissing-loop reporter: 259 nM

apparent KD of K4 kissing-loop reporter for K4 kissing-loop RNA reporter with input GCUAUGGUAGGAAGGAGCGCUGCGUUGUUUUUACGAGUGAUGUUCGGAAGCGGCGUGUUAAAGCAGGUAGGUCGCCUACUAUAGC [Arginine B K4 24] equals 162 nM

Tested on K4 kissing-loop RNA reporter, the item UGGAGUUGACGAAAAGUCAACUCCUGGGAAGGAGCGGACGAAAGUCCAGGUAGGUCGCUCACUACCAGUGAUGUUGGUACUAAAA showed apparent KD of K4 kissing-loop reporter equal to 144 nM

Measured apparent KD of K4 kissing-loop reporter (K4 kissing-loop RNA reporter), entry UGUACCGAGUCAGGAUAUGGCGUCGAAAGACGAAUUCUAGUGAUGUUAGGGAUCUGCGAAAGCAGUCUAGAAGGGACUUGGUACU [FmnBS 26 U36+U68] : 356 nM

For AGGCACGAGCAAGGAUAUCGAGUGGAGUGAUGUUCUGCCGACCCAGGACCGAAAGGUCCUGGGUCGCGAGAAGGUGCUCGUGCCU [#2 Same State - FMN A Attempt #8 (HarryS)] on K4 kissing-loop RNA reporter, measured apparent KD of K4 kissing-loop reporter was 215 nM

# lookup: GCCUUAUAUCCAGCUACAGCUCUUUUUGGUCGAGGACCGGUACGGCCGCCACUCGAAUGAUAGUGAUGUUAUCGUUUUGUACUAA [JR_Nu_ExcTryptoA_Sub024] on K4 kissing-loop RNA reporter, apparent KD of K4 kissing-loop reporter = 97.9 nM

Record UGUCAUUGGUCGGCCGCCACUUCGUGUAGAGUGAUGUUUUGUAGGACGGAUCGAAAGAUCUGUCGAAGGACCGGGACCGAUGACU [FiskerMod 18 - Jieux - Same State - Tryptophan B] ; system K4 kissing-loop RNA reporter; apparent KD of K4 kissing-loop reporter = 500 nM

K4 kissing-loop RNA reporter data for CGUAAGGAUUGACGACUGCAGAGCAAAAUAAAGGAUAUCGCAGCGUCGAGAAGGUUAUCGUGCGCCAGUGAUGUUGGCGGUAGUC [theeternabot_sameState_KL_FMN_A_22] ; its apparent KD of K4 kissing-loop reporter: 84.1 nM
